PROTOCOL TEXT: Exposure in TNF-induced SIRS study (blood samples for PK determination)
Type: in vivo
CONDITION DESCRIPTION: mouse, 0.4 mg/kg oral gavage
Recorded Exposure values for a group of molecules are listed next.
READOUT KIND: Exposure (nM)

* COc1ncc(-c2ccn3nc(N)nc3c2)cc1C(=O)NCc1ccccc1OC(F)(F)F | 117
* COc1ncc(-c2ccn3nc(N)nc3c2)cc1C(=O)NCc1cc(F)cc(F)c1OCC1CC1 | 50
* COc1ncc(-c2ccn3nc(N)nc3c2)cc1C(=O)N1CCC[C@@H](Cc2ccc(F)cc2)C1 | 364
* COc1ncc(-c2ccn3nc(N)nc3c2)cc1C(=O)NCc1cccc(OC(F)(F)F)c1 | 409
